Numbers sourced from paper PMC6718330.

molecular target: UniProtKB Q95PM0
measure name: Ki (nM)
Response body: numeric value in nM, unit text excluded.

Name the recorded Ki of the compound listed here: "Cn1c(=O)n(C)c2cc(CNCCNc3ccnc4cc(Cl)ccc34)ccc21" 1400

###

tested on: cruzain and rhodesain; assay: Primary screen of the MMV400 at 5 µM against cruzain and rhodesain; assay type: biochemical, Trypanosoma cruzi; Trypanosoma brucei; conditions: primary screen at 5 µM
measure name: Over 50% cruzain and rhodesain inhibition?

CCOc1cccc(C(=O)Nc2ccc(-c3nc4ccccc4[nH]3)cc2)c1
yes
Cl.Cl.Clc1cc(Br)ccc1-c1ccc(CNCC2CCNCC2)o1
no
COCCNCC(O)Cn1c2ccc(Cl)cc2c2cc(Cl)ccc21 (centres unmarked)
no
Cc1nc2ccccc2c(O)c1CC=C(Cl)Cl
yes

Please find the next molecule below.
Name the recorded Over 50% cruzain and rhodesain inhibition? of the molecule listed here: "Cn1c(=O)n(C)c2cc(CNCCNc3ccnc4cc(Cl)ccc34)ccc21" yes
